For each record, write down the corresponding IC50.
assay: Cell growth assay (WST-8) (Compounds B1-B278); format: cell-based; settings: 96 h; T47D cell line; WST-8, 4 days; read-out: Cell Growth Inhibition in T47D cell line IC50

*Q* Please give the documented IC50 of C[C@@H]1Cc2c([nH]c3ccccc23)[C@@H](c2cnc(N3CC4(CCC(CN5CCN6c7ccc8c(c7OC[C@H]6C5)CN(C5CCC(=O)NC5=O)C8=O)CC4)C3)nc2)N1CC(F)F (some centres unmarked)
*A* 1 to 10 nM

*Q* Please give the documented IC50 of C[C@@H]1Cc2c([nH]c3ccccc23)[C@@H](c2cnc(N3CC4(CCC(N5CCN6c7cc8c(cc7OC[C@@H]6C5)C(=O)N(C5CCC(=O)NC5=O)C8)CC4)C3)nc2)N1CC(F)F (some centres unmarked)
*A* > 10 nM

*Q* Please give the documented IC50 of COc1cc(N2CCC3(CC2)CC(CN2CCC4(CC2)COc2c4ccc4c2CN(C2CCC(=O)NC2=O)C4=O)C3)ccc1[C@@H]1c2[nH]c3ccccc3c2C[C@@H](C)N1CC(F)F (some centres unmarked)
*A* < 1 nM

*Q* Please give the documented IC50 of C[C@@H]1Cc2c([nH]c3ccccc23)[C@@H](c2cnc(N3CCC4(CC3)CC(N3CCN5c6ccc7c(c6OC[C@H]5C3)CN(C3CCC(=O)NC3=O)C7=O)CO4)nc2)N1CC(F)F (some centres unmarked)
*A* 1 to 10 nM

*Q* Please give the documented IC50 of COc1cc(N2CCC3(CC2)OCC(CN2CCC4(CC2)COc2c4ccc4c2CN(C2CCC(=O)NC2=O)C4=O)CO3)ccc1[C@@H]1c2[nH]c3ccccc3c2C[C@@H](C)N1CC(F)F (some centres unmarked)
*A* < 1 nM
